Notes on AC50 obtained with Vasopressin V2 receptor (Homo sapiens, UniProt P30518).
Sequence (P30518 whole entry): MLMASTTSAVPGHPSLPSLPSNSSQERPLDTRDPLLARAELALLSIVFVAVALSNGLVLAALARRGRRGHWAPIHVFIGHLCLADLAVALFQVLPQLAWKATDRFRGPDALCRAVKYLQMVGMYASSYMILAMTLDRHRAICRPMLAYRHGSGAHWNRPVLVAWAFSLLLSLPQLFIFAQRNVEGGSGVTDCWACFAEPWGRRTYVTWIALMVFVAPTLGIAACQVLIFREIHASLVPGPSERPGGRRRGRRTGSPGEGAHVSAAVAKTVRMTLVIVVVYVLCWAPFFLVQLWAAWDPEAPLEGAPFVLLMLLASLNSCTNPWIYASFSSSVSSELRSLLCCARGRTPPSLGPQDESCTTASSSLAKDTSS

The reported AC50 of the compound COCCCOc1ccnc(C[S+]([O-])c2nc3ccccc3[nH]2)c1C (stereo not drawn) [RABEPRAZOLE] was > 30 µM

The reported AC50 of the compound CC1(C)C(C=C(Cl)Cl)C1C(=O)OCc1cccc(Oc2ccccc2)c1 (stereo not drawn) [PERMETHRIN] was > 10 µM

The reported AC50 of the compound CCCNC(C)C(=O)Nc1ccccc1C (stereo not drawn) [PRILOCAINE] was > 30 µM

The reported AC50 of the compound CCn1cc(C(=O)O)c(=O)c2cc(F)c(N3CCN(C)CC3)cc21 [PEFLOXACIN] was > 30 µM

The reported AC50 of the compound CCC(=O)OCC(=O)[C@@]1(OC(=O)CC)[C@@H](C)C[C@H]2[C@@H]3CCC4=CC(=O)C=C[C@]4(C)[C@@]3(F)[C@@H](O)C[C@@]21C [BETAMETHASONE DIPROPIONATE] was > 30 µM

The reported AC50 of the compound Nc1ccc(C(=O)O)c(O)c1 [AMINOSALICYLIC ACID] was > 30 µM

The reported AC50 of the compound CCN(CC)C(=O)C1CN2CCc3cc(OC)c(OC)cc3C2CC1OC(C)=O (stereo not drawn) [BENZQUINAMIDE] was > 30 µM

The reported AC50 of the compound O=C(CCCN1CCC(n2c(O)nc3ccccc32)CC1)c1ccc(F)cc1 [BENPERIDOL] was > 30 µM

The reported AC50 of the compound CC(=O)/N=c1/sc(S(N)(=O)=O)nn1C [METHAZOLAMIDE] was > 10 µM

The reported AC50 of the compound CC[C@@H](CO)NC(=O)[C@@H]1C=C2c3cccc4[nH]cc(c34)C[C@H]2N(C)C1 [METHYLERGONOVINE] was > 30 µM

The reported AC50 of the compound C=CC(N)CCC(=O)O (stereo not drawn) [VIGABATRIN] was > 10 µM

The reported AC50 of the compound CNCC[C@@H](Oc1ccccc1C)c1ccccc1 [ATOMOXETINE] was > 30 µM

The reported AC50 of the compound NS(=O)(=O)c1cc2c(cc1C(F)(F)F)NC(Cc1ccccc1)NS2(=O)=O (stereo not drawn) [BENDROFLUMETHIAZIDE] was > 10 µM

The reported AC50 of the compound "C[C@]1(COc2ccc(N3CCC(Oc4ccc(OC(F)(F)F)cc4)CC3)cc2)Cn2cc([N+](=O)[O-])nc2O1" was > 30 µM

The reported AC50 of the compound CC(=O)Oc1ccccc1C(=O)Nc1ncc([N+](=O)[O-])s1 [NITAZOXANIDE] was 14 µM

The reported AC50 of the compound CNCC[C@H](Oc1cccc2ccccc12)c1cccs1 [DULOXETINE] was > 30 µM

The reported AC50 of the compound O=C(O)c1ccccc1Nc1cccc(C(F)(F)F)c1 [FLUFENAMIC ACID] was > 30 µM

The reported AC50 of the compound CN(C)C(=O)Oc1cc(OC(=O)N(C)C)cc(C(O)CNC(C)(C)C)c1 (stereo not drawn) [BAMBUTEROL] was > 30 µM

Reference source: ChEMBL document CHEMBL5291721
